All values here come from patent US11292796B2.

Form field: IC50 (one value per entry).
# System Tested: mTOR (Homo sapiens, UniProt P42345)
# Sequence (P42345 1360-2549 limits assumed): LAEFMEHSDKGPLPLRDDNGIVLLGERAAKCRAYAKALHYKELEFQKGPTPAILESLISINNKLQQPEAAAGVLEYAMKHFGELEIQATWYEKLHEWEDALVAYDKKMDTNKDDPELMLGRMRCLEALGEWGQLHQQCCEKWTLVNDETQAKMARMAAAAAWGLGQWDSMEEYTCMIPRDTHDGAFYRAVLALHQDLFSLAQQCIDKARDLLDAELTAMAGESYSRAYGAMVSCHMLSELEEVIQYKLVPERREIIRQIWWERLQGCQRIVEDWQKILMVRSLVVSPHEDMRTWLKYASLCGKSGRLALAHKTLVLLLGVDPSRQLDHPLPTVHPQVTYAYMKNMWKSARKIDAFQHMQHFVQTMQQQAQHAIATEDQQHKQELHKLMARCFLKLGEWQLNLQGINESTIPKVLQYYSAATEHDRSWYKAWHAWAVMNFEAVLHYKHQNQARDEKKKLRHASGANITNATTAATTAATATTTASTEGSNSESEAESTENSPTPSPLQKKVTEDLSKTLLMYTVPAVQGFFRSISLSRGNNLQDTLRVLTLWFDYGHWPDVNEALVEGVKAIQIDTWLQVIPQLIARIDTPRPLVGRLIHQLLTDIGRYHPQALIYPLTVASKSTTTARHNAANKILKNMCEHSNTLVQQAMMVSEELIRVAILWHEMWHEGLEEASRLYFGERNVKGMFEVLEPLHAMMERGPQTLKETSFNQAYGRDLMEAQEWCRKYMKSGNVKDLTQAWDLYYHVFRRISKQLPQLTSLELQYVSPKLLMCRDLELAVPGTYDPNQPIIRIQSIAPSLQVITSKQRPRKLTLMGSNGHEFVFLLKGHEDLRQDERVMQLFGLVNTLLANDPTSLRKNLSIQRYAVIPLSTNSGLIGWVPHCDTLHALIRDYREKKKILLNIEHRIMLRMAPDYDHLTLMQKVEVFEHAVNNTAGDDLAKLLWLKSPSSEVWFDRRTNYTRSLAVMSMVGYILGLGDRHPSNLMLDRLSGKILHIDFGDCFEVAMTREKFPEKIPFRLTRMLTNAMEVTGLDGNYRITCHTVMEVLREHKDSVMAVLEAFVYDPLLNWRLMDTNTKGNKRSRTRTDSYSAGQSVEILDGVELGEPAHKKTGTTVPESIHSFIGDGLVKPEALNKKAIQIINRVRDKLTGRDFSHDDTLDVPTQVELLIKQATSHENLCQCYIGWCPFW

Q: Report IC50 on mTOR (Homo sapiens, UniProt P42345) for this entry: CO[C@H]1CC[C@H](N2C(=O)CNc3ncc(-c4ccc(-c5nnc[nH]5)nc4C)nc32)C1 [Example 229]
A: 0.005 to 250 nM

Further cases:
Q: Report IC50 on mTOR (Homo sapiens, UniProt P42345) for this entry: Cc1nc(-c2nnc[nH]2)ccc1-c1cnc2c(n1)N(Cc1cccc(C#N)c1)C(=O)CN2 [Example 203]
A: 0.005 to 250 nM

Q: Report IC50 on mTOR (Homo sapiens, UniProt P42345) for this entry: COCCN1CC(=O)Nc2ncc(-c3ccc(-c4nnc[nH]4)c(F)c3C)nc21 [Example 49]
A: 0.005 to 250 nM

Q: Report IC50 on mTOR (Homo sapiens, UniProt P42345) for this entry: CO[C@H]1CC[C@H](N2CC(=O)Nc3ncc(-c4cnc(C(C)(C)O)cc4C)nc32)CC1 [Example 77]
A: 0.005 to 250 nM

Q: Report IC50 on mTOR (Homo sapiens, UniProt P42345) for this entry: CC(C)(O)c1ccc(-c2cnc3c(n2)N([C@H]2CC[C@H](O)CC2)CC(=O)N3)cn1 [Example 101]
A: 0.005 to 250 nM

Q: Report IC50 on mTOR (Homo sapiens, UniProt P42345) for this entry: COCCN1C(=O)CNc2ncc(-c3cnc4[nH]ccc4c3)nc21 [Example 192]
A: 0.005 to 250 nM
